// provenance: paper PMC5896266

Biological target: MMP-2 enzyme isolated from rat heart (Rattus norvegicus)
Construct: we used full-length, active MMP-2 enzymes isolated from healthy young adult rat hearts
Sequence (P33436 110-662): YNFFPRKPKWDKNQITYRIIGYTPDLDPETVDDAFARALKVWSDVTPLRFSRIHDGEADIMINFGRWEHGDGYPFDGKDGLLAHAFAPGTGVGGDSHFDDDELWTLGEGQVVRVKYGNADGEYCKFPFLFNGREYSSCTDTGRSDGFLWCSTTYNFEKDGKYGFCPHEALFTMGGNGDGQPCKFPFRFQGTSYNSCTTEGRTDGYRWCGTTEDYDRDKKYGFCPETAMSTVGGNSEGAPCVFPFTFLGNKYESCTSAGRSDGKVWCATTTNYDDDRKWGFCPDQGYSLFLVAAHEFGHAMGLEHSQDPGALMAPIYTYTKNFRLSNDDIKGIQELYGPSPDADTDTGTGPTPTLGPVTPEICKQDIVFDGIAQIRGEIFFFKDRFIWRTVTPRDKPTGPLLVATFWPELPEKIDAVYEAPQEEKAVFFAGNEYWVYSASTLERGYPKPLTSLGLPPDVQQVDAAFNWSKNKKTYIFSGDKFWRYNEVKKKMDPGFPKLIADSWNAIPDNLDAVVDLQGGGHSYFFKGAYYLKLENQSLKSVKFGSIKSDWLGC
Experiment: Gelatin zymography on cardiac MMP-2
Settings: most effective concentration in cell culture experiments; read-out: IC50 value (MMP-2 inhibition)
quantity measured: IC50 (nM)
Reply with just the number (in nM).

O=C(O)c1c[nH]c(CN(Cc2ccc(F)cc2)Cc2ccc(OCc3ccccc3)cc2)n1 yielded IC50 of 2500

###

Target: MMP-1 (Homo sapiens, UniProt P03956)
Sequence (P03956 100-469, species assumed): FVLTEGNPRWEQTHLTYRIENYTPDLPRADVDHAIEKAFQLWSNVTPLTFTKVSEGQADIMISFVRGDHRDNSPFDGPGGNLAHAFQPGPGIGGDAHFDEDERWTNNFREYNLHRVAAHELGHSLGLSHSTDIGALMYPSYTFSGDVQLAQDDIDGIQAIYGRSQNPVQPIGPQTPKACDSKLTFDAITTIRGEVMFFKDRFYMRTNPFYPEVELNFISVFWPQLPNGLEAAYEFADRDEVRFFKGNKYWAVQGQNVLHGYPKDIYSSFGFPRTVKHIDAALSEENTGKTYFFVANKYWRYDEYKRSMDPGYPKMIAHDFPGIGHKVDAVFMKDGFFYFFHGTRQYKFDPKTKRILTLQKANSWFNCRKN
Assay: MMP-1 inhibition (inhibitory profile)
Type: biochemical
Conditions: Table 2
Experimental: The compounds were measured for MMP-1, 2, 9, 13 to determine their inhibitory profile. Efficiency Index amplifies the two major required effects, selectivity against MMP-1 and the inhibitory activity.
quantity measured: IC50 (µM)
Dear colleague, please return just the value in µM, with no unit written.

Example entries and their recorded answers appear below.
O=C(O)c1csc(CN(Cc2ccc(F)cc2)Cc2ccc(-c3ccccc3)cc2)n1 [MMPI-1254] = 17
O=C(O)C(c1ccccc1)N(Cc1ccc(OCc2ccccc2)cc1)Cc1cccc(F)c1 (stereo not drawn) [MMPI-1140] = 12

Proceed to the following item.
Value of measured IC50 for the entry O=C(O)c1csc(CN(Cc2ccc(F)cc2)Cc2ccc(OCc3cccnc3)cc2)n1 [MMPI-1260] : 51
